# study.system: human activated kallikrein enzyme (Homo sapiens)
# method: Inhibition of human activated plasma kallikrein, fluorogenic PFR-AMC substrate, 500 pM enzyme format
# Assay type: biochemical
# experimental.setup: 500 pM activated kallikrein; 300 μM PFR-AMC; 30 min preincubation; 10 min room temperature; pH 7.5; read-out: Primary Dose Response Assay: Average EC50
pEC50: −log10 of the molar value.
measurement.name: pEC50

mol.smiles | pEC50
Cc1cc2nc(Cn3cc(C(=O)NCc4c(C)cc5c(N)nccc5c4C)cn3)cn2cc1C1CC1 | > 9.00
Cc1cc2c(N)nccc2c(C)c1CNc1cc(OCc2ccc3ccccc3c2)cnn1 | 7.00 to 8.00
Cc1cc2nc(Cn3cc(C(=O)NCc4c(C)cc5c(N)nccc5c4C)cn3)cn2cc1C | > 9.00

pEC50 recorded for this compound, Cc1ccc2nc(CNc3cc(NCc4c(C)cc5c(N)nccc5c4C)ncn3)cn2c1 , is > 9.00

###

# study.system: human activated kallikrein enzyme (Homo sapiens)
# method: Inhibition of human activated plasma kallikrein, fluorogenic PFR-AMC substrate, 500 pM enzyme format
# Type: biochemical
# experimental.setup: 500 pM activated kallikrein; 300 μM PFR-AMC; 30 min preincubation; 10 min room temperature; pH 7.5; read-out: Primary Dose Response Assay: Average EC50
pEC50: −log10 of the molar value. Structures can show the parent of a compound that is named as a salt.
measurement.name: pEC50

Please review the following examples before continuing.
compound | pEC50
Cc1cc2c(N)nccc2c(C)c1CNc1cc(NCc2cc3ccccc3cn2)ncn1 | 8.00 to 9.00
Cc1cc2c(N)nccc2c(C)c1CNc1nccc2cn(Cc3cn4cc(C5CC5)cnc4n3)nc12 | > 9.00
Cc1ccn2cc(CNc3cc(NCc4c(C)cc5c(N)nccc5c4C)ncn3)nc2c1 | 8.00 to 9.00
Cc1cc2c(N)nccc2c(C)c1CNC(=O)c1cnn(Cc2cnccn2)c1 | 6.00 to 7.00

Lab note: measured pEC50 of CCOC(=O)Cc1ccc(Cn2cc(C(=O)NCc3c(C)cc4c(N)nccc4c3C)cn2)cc1 was 8.00 to 9.00

The reported pEC50 of the compound Cc1cc2c(N)nccc2c(C)c1CNc1cc(NCc2ccc3c(c2)OCCN3C)ncn1 [Example 326, formic acid salt] was 8.00 to 9.00

According to the records, this compound Cc1cc2c(N)nccc2c(C)c1CNc1cc2nn(Cc3cn4cc(C5CC5)ccc4n3)cc2cn1 displays pEC50 of 7.00 to 8.00

Lab note: Cc1cc2c(N)nccc2c(C)c1CNc1cc(NCc2cc(C)c(OCc3ccccn3)c(C)c2)ncn1 [Example 353, formic acid salt] gave pEC50 of 7.00 to 8.00

###

# study.system: human activated kallikrein enzyme (Homo sapiens, UniProt P03952)
# Sequence (P03952 391-638 limits assumed): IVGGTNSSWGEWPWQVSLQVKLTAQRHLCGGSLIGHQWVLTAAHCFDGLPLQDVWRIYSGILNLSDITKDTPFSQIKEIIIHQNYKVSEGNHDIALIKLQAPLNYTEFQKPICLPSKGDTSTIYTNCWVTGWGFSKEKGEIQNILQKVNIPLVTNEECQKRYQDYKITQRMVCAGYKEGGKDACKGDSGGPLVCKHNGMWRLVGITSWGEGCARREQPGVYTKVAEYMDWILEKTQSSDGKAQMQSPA
# Sequence (P03952 20-390 partner limits assumed): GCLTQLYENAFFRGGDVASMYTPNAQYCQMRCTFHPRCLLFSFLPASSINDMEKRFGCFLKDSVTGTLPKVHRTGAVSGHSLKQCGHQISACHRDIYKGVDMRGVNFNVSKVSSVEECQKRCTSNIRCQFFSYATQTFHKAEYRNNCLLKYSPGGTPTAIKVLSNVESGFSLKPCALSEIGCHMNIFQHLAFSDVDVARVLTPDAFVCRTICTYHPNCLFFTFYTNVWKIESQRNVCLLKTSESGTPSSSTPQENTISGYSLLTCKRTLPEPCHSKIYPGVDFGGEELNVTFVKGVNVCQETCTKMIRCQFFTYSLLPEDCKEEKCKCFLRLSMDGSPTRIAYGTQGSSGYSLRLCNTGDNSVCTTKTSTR
# method: Inhibition of human activated plasma kallikrein, fluorogenic PFR-AMC substrate, 500 pM enzyme format
# Type: biochemical
# experimental.setup: 500 pM activated kallikrein; 300 μM PFR-AMC; 30 min preincubation; 10 min room temperature; pH 7.5; read-out: Primary Dose Response Assay: Average EC50
# Experimental: Compounds were evaluated for inhibition of the human activated kallikrein enzyme in two formats of an assay employing a fluorogenic peptide substrate. […] After initiation with substrate, reactions were incubated for 10 min at room temperature and fluorescence emission at 460 nm from 380 nm excitation measured with a microplate reader. […]
pEC50: −log10 of the molar value.
measurement.name: pEC50

Would you please look over these solved cases?
mol.smiles | measurement.name | value.reported
Cc1cc2c(N)nccc2c(C)c1CNc1cc(OCc2cccc(-n3ccccc3=O)c2)ncn1 | pEC50 | 6.00 to 7.00
Cc1cc2c(N)nccc2c(C)c1CNc1cc(OCc2ccc(Cn3cccn3)nc2)ncn1 | pEC50 | 6.00 to 7.00

pEC50 reading for Cc1cc2c(N)nccc2c(C)c1CNC(=O)c1cnn(Cc2ccc3nc(C)c(C)nc3c2)c1 : > 9.00

Lookup result for Cc1cc2c(N)nccc2c(C)c1CNc1cnnc(NCc2ccc(Cn3ccccc3=O)cc2)c1 ; measured pEC50: > 9.00

The reported value for Cc1cc2c(N)nccc2c(C)c1CNc1nccnc1OCc1cn2cc(C3CC3)ccc2n1 in terms of pEC50 is 7.00 to 8.00

Briefly, pEC50 measured for Cc1cc2c(N)nccc2c(C)c1CNc1ncnc2[nH]c(Cc3ccc4ccccc4c3)cc12 : 7.00 to 8.00

Data point: Cc1cc2c(N)nccc2c(C)c1CNC(=O)c1cnn(Cc2cn3cc(Br)c(Cl)cc3n2)c1 ; pEC50 = > 9.00
